target: Histamine H3 receptor (Homo sapiens, UniProt Q9Y5N1)
Sequence (Q9Y5N1 whole entry): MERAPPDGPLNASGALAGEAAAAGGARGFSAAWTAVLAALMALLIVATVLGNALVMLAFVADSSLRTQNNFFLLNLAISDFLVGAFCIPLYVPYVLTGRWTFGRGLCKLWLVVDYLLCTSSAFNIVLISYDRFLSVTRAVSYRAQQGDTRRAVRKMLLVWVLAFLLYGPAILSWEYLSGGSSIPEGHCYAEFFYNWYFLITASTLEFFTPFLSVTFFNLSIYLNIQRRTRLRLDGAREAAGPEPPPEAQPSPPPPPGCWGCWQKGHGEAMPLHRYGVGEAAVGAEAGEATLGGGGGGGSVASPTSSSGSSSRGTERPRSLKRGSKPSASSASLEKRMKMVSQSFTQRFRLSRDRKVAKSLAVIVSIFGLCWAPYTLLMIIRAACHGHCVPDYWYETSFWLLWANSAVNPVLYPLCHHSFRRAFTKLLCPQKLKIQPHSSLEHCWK
outcome_measure: Ki (nM)
Use nM as the unit, but write only the number.

Report measured Ki on Histamine H3 receptor (Homo sapiens, UniProt Q9Y5N1); entry: Cc1cc(N2CCC(N3CCCC3C)C2)ccc1NC(=O)c1ccccc1F (stereo unspecified) 13.8

---

Below is a list of entries, each paired with its recorded Ki value.
molecular target: Histamine H1 receptor (Homo sapiens)
Sequence (P35367 whole entry): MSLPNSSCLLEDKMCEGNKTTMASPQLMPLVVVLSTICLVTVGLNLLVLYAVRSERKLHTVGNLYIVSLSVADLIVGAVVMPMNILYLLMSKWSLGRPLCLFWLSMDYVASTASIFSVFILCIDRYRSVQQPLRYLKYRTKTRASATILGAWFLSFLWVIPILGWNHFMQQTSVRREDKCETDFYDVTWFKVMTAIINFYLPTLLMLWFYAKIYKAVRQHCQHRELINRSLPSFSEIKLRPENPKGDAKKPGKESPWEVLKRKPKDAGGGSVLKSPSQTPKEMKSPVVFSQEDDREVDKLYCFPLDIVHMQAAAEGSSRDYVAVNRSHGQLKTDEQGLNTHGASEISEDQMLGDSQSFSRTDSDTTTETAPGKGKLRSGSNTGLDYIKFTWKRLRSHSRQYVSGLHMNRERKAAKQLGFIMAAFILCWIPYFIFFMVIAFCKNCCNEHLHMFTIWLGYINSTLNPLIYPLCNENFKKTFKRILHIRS

Report measured Ki on Histamine H1 receptor (Homo sapiens); entry: Cc1cc(N2CCC(N3CCCC3C)C2)ccc1NC(=O)c1ccccc1F (configuration not stated) > 9.3 µM

Please turn your attention to the following entry.
Report measured Ki on Histamine H1 receptor (Homo sapiens); entry: Cc1cc(N2CCC(N3CCCC3C)C2)ccc1NC(=O)c1cc(F)ccc1C (configuration not stated) > 9.3 µM

Where these numbers come from: ChEMBL document CHEMBL2390865
